# Measurement Context: 353.15 K; 100 kPa; Liquid; Concentric cylinders viscometry
Could you please report measured viscosity for the items listed next?
Express the result in mPa·s but write the number alone.

Memo: CCCCn1cc[n+](C)c1.COP(=O)([O-])OC [1-butyl-3-methyl-1H-imidazolium dimethylphosphate] , reported viscosity: 37.08

Short answer for CCCCn1cc[n+](C)c1.N#CN=C=[N-] [1-butyl-3-methylimidazolium dicyanamide] : viscosity was 6.794

Per the records, this molecule ( CC(=O)[O-].CCCCn1cc[n+](C)c1 [1-butyl-3-methylimidazolium acetate] ) has viscosity equal to 20.63

Entry CCCCn1cc[n+](C)c1.N#C[S-] [1-butyl-3-methylimidazolium thiocyanate] , viscosity reported as 10.67

Per the record, CCCCn1cc[n+](C)c1.F[B-](F)(F)F [1-butyl-3-methylimidazolium tetrafluoroborate] has viscosity of 14.26
